Sourced from the supplement of paper PMC8617591

Test system: Mycobacterium tuberculosis Erdman (autoluminescent)
Assay: FIC50 (Loewe) at 50% inhibition (log2); higher = more antagonistic
Details: in vitro model: butyrate; time point: terminal (~4-5 doublings, model-specific)
Param threshold (0.3) applies to FIC50; output Satisfied when value >= threshold, Not satisfied when value < threshold.

molecule | study-target | answer-label
O=[N+]([O-])c1cn2c(n1)OC[C@@H](OCc1ccc(OC(F)(F)F)cc1)C2 [pretomanid] + CO[C@H]1/C=C/O[C@@]2(C)Oc3c(C)c(O)c4c(O)c(c(/C=N/N5CCN(C6CCCC6)CC5)c(O)c4c3C2=O)NC(=O)/C(C)=C\C=C\[C@H](C)[C@H](O)[C@@H](C)[C@@H](O)[C@@H](C)[C@H](OC(C)=O)[C@@H]1C [rifapentine] | Mycobacterium tuberculosis Erdman (autoluminescent) | Not satisfied
CC(C)/N=c1\cc2n(-c3ccc(Cl)cc3)c3ccccc3nc-2cc1Nc1ccc(Cl)cc1 [clofazimine] + CO[C@H]1/C=C/O[C@@]2(C)Oc3c(C)c(O)c4c(O)c(c(/C=N/N5CCN(C6CCCC6)CC5)c(O)c4c3C2=O)NC(=O)/C(C)=C\C=C\[C@H](C)[C@H](O)[C@@H](C)[C@@H](O)[C@@H](C)[C@H](OC(C)=O)[C@@H]1C [rifapentine] | Mycobacterium tuberculosis Erdman (autoluminescent) | Not satisfied
CC(=O)NC[C@H]1CN(c2ccc(N3CCOCC3)c(F)c2)C(=O)O1 [linezolid] + O=[N+]([O-])c1cn2c(n1)OC[C@@H](OCc1ccc(OC(F)(F)F)cc1)C2 [pretomanid] | Mycobacterium tuberculosis Erdman (autoluminescent) | Satisfied
COc1nc2ccc(Br)cc2cc1[C@@H](c1ccccc1)[C@@](O)(CCN(C)C)c1cccc2ccccc12 [bedaquiline] + O=[N+]([O-])c1cn2c(n1)OC[C@@H](OCc1ccc(OC(F)(F)F)cc1)C2 [pretomanid] | Mycobacterium tuberculosis Erdman (autoluminescent) | Satisfied
NNC(=O)c1ccncc1 [isoniazid] + CO[C@H]1/C=C/O[C@@]2(C)Oc3c(C)c(O)c4c(O)c(c(/C=N/N5CCN(C6CCCC6)CC5)c(O)c4c3C2=O)NC(=O)/C(C)=C\C=C\[C@H](C)[C@H](O)[C@@H](C)[C@@H](O)[C@@H](C)[C@H](OC(C)=O)[C@@H]1C [rifapentine] | Mycobacterium tuberculosis Erdman (autoluminescent) | Satisfied

Dear colleague, could you confirm whether CC(=O)NC[C@H]1CN(c2ccc(N3CCOCC3)c(F)c2)C(=O)O1 [linezolid] + COc1c(N2C[C@@H]3CCCN[C@@H]3C2)c(F)cc2c(=O)c(C(=O)O)cn(C3CC3)c12 [moxifloxacin] has FIC50 at or above 0.3?
Satisfied
